SYSTEM TESTED: LTA4H (Homo sapiens, UniProt P09960)
Sequence (P09960 whole entry): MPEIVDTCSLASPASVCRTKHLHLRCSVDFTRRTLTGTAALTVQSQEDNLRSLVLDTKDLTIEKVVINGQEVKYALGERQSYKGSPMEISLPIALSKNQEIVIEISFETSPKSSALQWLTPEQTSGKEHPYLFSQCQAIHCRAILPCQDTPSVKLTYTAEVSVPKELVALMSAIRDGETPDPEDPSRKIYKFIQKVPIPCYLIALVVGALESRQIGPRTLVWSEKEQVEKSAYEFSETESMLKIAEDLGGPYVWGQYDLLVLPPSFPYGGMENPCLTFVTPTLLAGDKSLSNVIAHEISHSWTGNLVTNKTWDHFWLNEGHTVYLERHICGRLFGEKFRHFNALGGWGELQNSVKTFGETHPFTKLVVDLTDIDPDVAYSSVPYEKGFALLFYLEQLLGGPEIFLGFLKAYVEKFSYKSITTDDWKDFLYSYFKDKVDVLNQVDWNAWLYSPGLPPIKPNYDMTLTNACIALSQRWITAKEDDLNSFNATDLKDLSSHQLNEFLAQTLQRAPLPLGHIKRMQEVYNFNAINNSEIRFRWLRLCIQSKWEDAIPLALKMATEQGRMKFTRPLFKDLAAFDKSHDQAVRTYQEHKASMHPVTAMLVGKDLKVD
EXPERIMENT NOTES: Peptidase assay of LTA4H with pNa and AMC conjugates
Type: biochemical
Design: made in house; host or cells: Escherichia coli JM101
CONDITIONS: 5 µM L-Pro-AMC; read-out: IC50, peptidase activity with L-Pro-AMC
pIC50: −log10 of the molar value.
MEASURE: pIC50

| COMPOUND | SYSTEM TESTED | MEASURED NUMBER |
| --- | --- | --- |
| Nc1nc(-c2ccc(Cc3ccccc3)cc2)cs1 [ARM1, 4-(4-benzylphenyl) thiazol-2-amine, reference compound] | LTA4H (Homo sapiens, UniProt P09960) | 6.52 |
| Nc1nc(-c2ccc(Cc3ccccc3)cc2)co1 | LTA4H (Homo sapiens, UniProt P09960) | 6.51 |

Numbers sourced from paper PMC10145651.
